Target: T1, GST-tagged GluK1 ATD (rat)
T1 chain: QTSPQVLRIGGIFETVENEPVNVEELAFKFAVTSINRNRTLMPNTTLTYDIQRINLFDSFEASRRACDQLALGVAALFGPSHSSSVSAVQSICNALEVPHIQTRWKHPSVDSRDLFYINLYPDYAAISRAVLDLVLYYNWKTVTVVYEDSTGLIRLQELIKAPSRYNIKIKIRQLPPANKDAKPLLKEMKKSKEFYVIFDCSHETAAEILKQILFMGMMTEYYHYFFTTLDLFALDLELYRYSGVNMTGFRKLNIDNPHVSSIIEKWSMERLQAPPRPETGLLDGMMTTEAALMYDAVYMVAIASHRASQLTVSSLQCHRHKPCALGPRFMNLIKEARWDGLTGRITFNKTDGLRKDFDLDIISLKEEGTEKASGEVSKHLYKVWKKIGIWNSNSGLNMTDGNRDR
Experiment: FP
Where no end group is shown, it is not given here. The star is where a group is joined. FITC = O=C1OC2(c3ccc(O)cc3Oc3cc(O)ccc32)c2ccc(NC(=S)*)cc21
measurement kind: Kd (µM)
Write the answer as a number in µM, unit excluded.

Exercise: Using the record for {FITC}-MERSTVLIQPGLWTRDTSWTLLYFLCYILP [FITC-labelled GluK1 signal peptide] , state its measured Kd.
Solution: 13.7
